targetOrTestSystem: T1, human CX3CR1 (human, UniProt P49238 1-355)
T1 construct: overexpressed on CHO, BA/F3 or HEK293T cells; also called huCX3CR1; hCX3CR1
T1 sequence: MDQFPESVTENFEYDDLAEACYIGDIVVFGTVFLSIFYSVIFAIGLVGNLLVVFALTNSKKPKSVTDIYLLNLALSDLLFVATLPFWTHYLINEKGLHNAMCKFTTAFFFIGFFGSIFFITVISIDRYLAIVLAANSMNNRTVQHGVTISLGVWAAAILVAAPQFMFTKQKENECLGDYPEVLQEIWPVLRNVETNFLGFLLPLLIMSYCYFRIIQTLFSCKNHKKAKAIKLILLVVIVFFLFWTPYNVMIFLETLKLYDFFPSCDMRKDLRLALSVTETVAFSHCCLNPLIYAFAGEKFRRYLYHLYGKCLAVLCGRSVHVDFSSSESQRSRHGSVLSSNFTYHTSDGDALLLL
assayComment: fractalkine competition FACS
Some binders, each annotated with its measured % block.

C100CX3CR1BII048 (VHH, 66B02 with A14P, E16G, A74S, K83R, Q108L; not shown: myc/His tag) VHH: EVQLVESGGGSVQPGGSLRLSCAASGSIFSSNAMAWYRQAPGKRRDLVAAINSVGVTKYADSVKGRFTISRDNSKNTVYLQMNSLRPEDTAVYYCTSDPRRGWDTRYWGQGTLVTVSS = 101%
C100CX3CR1BII057 (VHH, 66B02 with S11L, A14P, E16G, D46E, A74S, K83R, Q108L; not shown: myc/His tag) VHH: EVQLVESGGGLVQPGGSLRLSCAASGSIFSSNAMAWYRQAPGKRRELVAAINSVGVTKYADSVKGRFTISRDNSKNTVYLQMNSLRPEDTAVYYCTSDPRRGWDTRYWGQGTLVTVSS = 99.4%
C100CX3CR1BII043 (VHH, 66B02 with A14P, A74S, K83R, Q108L; not shown: myc/His tag) VHH: EVQLVESGGGSVQPGESLRLSCAASGSIFSSNAMAWYRQAPGKRRDLVAAINSVGVTKYADSVKGRFTISRDNSKNTVYLQMNSLRPEDTAVYYCTSDPRRGWDTRYWGQGTLVTVSS = 101%
C100CX3CR1BII061 (VHH, 66B02 with S11L, A14P, E16G, A74S, K83R, Q108L; not shown: myc/His tag) VHH: EVQLVESGGGLVQPGGSLRLSCAASGSIFSSNAMAWYRQAPGKRRDLVAAINSVGVTKYADSVKGRFTISRDNSKNTVYLQMNSLRPEDTAVYYCTSDPRRGWDTRYWGQGTLVTVSS = 98.9%
C100CX3CR1BII060 (VHH, 66B02 with S11L, A14P, E16G, R44Q, D46E, A74S, K83R, Q108L; not shown: myc/His tag) VHH: EVQLVESGGGLVQPGGSLRLSCAASGSIFSSNAMAWYRQAPGKQRELVAAINSVGVTKYADSVKGRFTISRDNSKNTVYLQMNSLRPEDTAVYYCTSDPRRGWDTRYWGQGTLVTVSS = 98.4%
CX3CR1BIIPMP66B02 (VHH, alexa647 label where used as labeled competitor (Table 23), also called CX3CR1BII66B02; C100CX3CR1BII66B02; not shown: C-terminal c-myc and His6 tags) VHH: EVQLVESGGGSVQAGESLRLSCAASGSIFSSNAMAWYRQAPGKRRDLVAAINSVGVTKYADSVKGRFTISRDNAKNTVYLQMNSLKPEDTAVYYCTSDPRRGWDTRYWGQGTQVTVSS = 101%

% block for C100CX3CR1BII045 (VHH, 66B02 with E1D, A14P, A74S, K83R, Q108L; not shown: myc/His tag) VHH: DVQLVESGGGSVQPGESLRLSCAASGSIFSSNAMAWYRQAPGKRRDLVAAINSVGVTKYADSVKGRFTISRDNSKNTVYLQMNSLRPEDTAVYYCTSDPRRGWDTRYWGQGTLVTVSS is 101%

The binder listed as C100CX3CR1BII056 (VHH, 66B02 with S11L, A14P, E16G, R44Q, A74S, K83R, Q108L; not shown: myc/His tag) VHH: EVQLVESGGGLVQPGGSLRLSCAASGSIFSSNAMAWYRQAPGKQRDLVAAINSVGVTKYADSVKGRFTISRDNSKNTVYLQMNSLRPEDTAVYYCTSDPRRGWDTRYWGQGTLVTVSS shows % block equal to 101%

Source of measurements: patent US20130224224A1
